Assay: qHTS Assay for Inhibitors of Hepatitis C Virus (HCV)
Conditions: Huh7.5.1 HCVcc-Cre infection, luciferase reporter, 44 h; series mostly up to 41.8 µM
Screen size: about 340,000 compounds; about 12,000 (3.5%) were called active. About 18% were inconclusive and are not listed. Calls come from the whole dose curve; as a rule, active = well fitted inhibition curve with a large enough effect; inconclusive = small, poorly fitted or top-dose-only effect, or another doubt; inactive = no such curve, though single readings can be large or run the other way. This is one part of a sample in which actives are shown more often than they occur.
Possible outcomes: yes (1) = active, no (0) = inactive

{"compound": "Nc1c(N(Cc2ccco2)C(=O)c2cccc(F)c2)c(=O)[nH]c(=O)n1Cc1ccccc1", "category": "no (0)"}
{"compound": "CCC1(CC)NC(=O)N(CC(=O)OCC(=O)c2cc(C)c(C)cc2C)C1=O", "category": "no (0)"}
{"compound": "CCOc1ccc(-n2c(O)c(/C=N/Nc3nc(C)cc(C)n3)c3ccccc3c2=O)cc1", "category": "yes (1)"}
{"compound": "Cc1cc(C(=O)OCC(=O)Nc2ccccc2Cl)c(C)o1", "category": "no (0)"}
{"compound": "O=C1C=CN2CCCC2CC1 (stereo unspecified)", "category": "no (0)"}
{"compound": "CC1CCCN(C(=O)c2cc(-c3ccco3)nc3ccccc23)C1 (stereo unspecified)", "category": "no (0)"}

---

Experiment: qHTS Assay for Inhibitors of Hepatitis C Virus (HCV)
Conditions: Huh7.5.1 HCVcc-Cre infection, luciferase reporter, 44 h; series mostly up to 41.8 µM
Among all 340,000 compounds or so, about 12,000 (3.5%) were called active. Another 18% or so got no clear call; they are omitted. Calls come from the whole dose curve; as a rule, active = well fitted inhibition curve with a large enough effect; inconclusive = small, poorly fitted or top-dose-only effect, or another doubt; inactive = no such curve, though single readings can be large or run the other way. The sample as a whole holds a higher share of actives than the screen did.
Possible outcomes: active, inactive

{"molecule": "COc1ccccc1CNS(=O)(=O)c1cc(C(=O)NCc2ccccn2)c(Cl)cc1Cl", "category": "inactive"}
{"molecule": "Cc1cc(C)c2nc(N3CCCC3)c(C#N)cc2c1", "category": "inactive"}
{"molecule": "CCOC(=O)CCC(NC(=O)c1ccc(CNc2nc3cc(C(F)(F)F)ccc3nc2C(=O)OCC)cc1)C(=O)OCC (stereo not given)", "category": "inactive"}
{"molecule": "CCOC(=O)c1c(-c2ccccc2)oc2ccc(OCC(N)=O)cc12", "category": "active"}
{"molecule": "COc1ccc(C(=O)Nc2ccc(CN3CCOCC3)cc2)cc1", "category": "inactive"}
{"molecule": "CCOC(=O)c1c(-c2ccccc2)oc2ccc(OC(=O)N(C)C)cc12", "category": "active"}
{"molecule": "CC(=O)c1ccc(S(=O)(=O)N2CCN(c3nc4c(C)c(C)ccc4cc3C#N)CC2)cc1", "category": "active"}
{"molecule": "O=C(Nc1ccc(CSc2ccccc2)cc1)c1ccc(CN2CCOCC2)cc1", "category": "active"}
{"molecule": "CC(=O)c1ccc(S(=O)(=O)N2CCN(C(=O)/C=C/c3ccc4ccccc4n3)CC2)cc1", "category": "inactive"}
{"molecule": "COC(=O)c1ccc(/C=C/c2c(-c3ccc(OC)cc3)sc3ccccc23)cc1", "category": "inactive"}

---

Assay: qHTS Assay for Inhibitors of Hepatitis C Virus (HCV)
Conditions: Huh7.5.1 HCVcc-Cre infection, luciferase reporter, 44 h; series mostly up to 41.8 µM
Out of some 340,000 compounds screened, about 12,000 (3.5%) were called active. Not shown: some 18% with an inconclusive outcome. The call rests on the fitted dose curve; in most records, active means well fitted inhibition curve with a large enough effect; inconclusive means small, poorly fitted or top-dose-only effect, or another doubt; inactive means no such curve, though single readings can be large or run the other way. The list comes from a sample in which actives are over-represented; it also holds close analogues and randomly drawn compounds.
Possible outcomes: active, inactive

{"compound": "CCn1c(Cc2ccccc2)nnc1SCc1nc2ccccc2c(=O)[nH]1", "category": "inactive"}
{"compound": "O=c1[nH]c(CSc2ncc(-c3ccc(F)cc3)n2Cc2ccco2)nc2ccccc12", "category": "active"}
{"compound": "NC(=O)C1CCN(C(=O)COc2cccc3cccnc23)CC1", "category": "inactive"}
{"compound": "CCOc1ccc(NC(=O)c2ccc(NC(=O)CN3C(=O)C(=O)N(CC(C)C)C3=O)cc2)cc1", "category": "inactive"}
{"compound": "COCCn1c(SC(C)C(=O)NC2CC2)nnc1-c1cccc(C)c1 (stereo not given)", "category": "inactive"}
